Test system: growth hormone release from rat pituitary cells
Experiment: In vitro test for the inhibition of growth hormone release in cultured rat pituitary cells
Assay type: cell-based
Conditions: multiples or fractions of the effect of somatostatin (=1), fiducial limits in parentheses, 4 hours incubation
Experimental: The instant cyclic hexapeptide analogs of somatostatin are tested and compared with the effects of somatostatin in an in vitro test for the inhibition of growth hormone. The test is described as follows: […] The test results for some of the compounds of this invention are recorded below with the results for somatostatin listed first and given the arbitrary value of 1. […]
Square brackets hold non-standard residues; d marks the D form. Peptide text beside a SMILES is read from it. NMeF = CN[C@@H](Cc1ccccc1)C(=O)O; NMeA = CN[C@@H](C)C(=O)O; dNMeA = CN[C@H](C)C(=O)O; Sar = CNCC(=O)O
Reported Growth Hormone Release Inhibition In Vitro values for the following molecules.

The following molecules have reported results that may help.
>>> value("C[C@H]1C(=O)N[C@@H](Cc2c[nH]cn2)C(=O)N[C@H](Cc2c[nH]c3ccccc23)C(=O)N[C@@H](CCCCN)C(=O)N[C@@H](CO)C(=O)N[C@@H](Cc2c[nH]c3ccccc23)C(=O)N1C (cyclo(H[dW]KSW[NMeA]))")
"1.45(0.9-2.06)"
>>> value("C[C@@H](O)[C@@H]1NC(=O)[C@H](CCCCN)NC(=O)[C@@H](Cc2c[nH]c3ccccc23)NC(=O)[C@H](Cc2ccccc2)NC(=O)[C@H](Cc2ccccc2)N(C)C(=O)[C@H](Cc2ccccc2)NC1=O (cyclo(F[NMeF]F[dW]KT))")
"13.3(9.6-18.1)"
>>> value("C[C@@H]1C(=O)N[C@@H](Cc2ccccc2)C(=O)N[C@H](Cc2c[nH]c3ccccc23)C(=O)N[C@@H](CCCCN)C(=O)N[C@@H]([C@@H](C)O)C(=O)N[C@@H](Cc2ccccc2)C(=O)N1C (cyclo(F[dNMeA]F[dW]KT))")
"2.13(0.83-6.00)"

Tell me the measured Growth Hormone Release Inhibition In Vitro of CC(C)[C@@H]1NC(=O)[C@H](CCCCN)NC(=O)[C@@H](Cc2c[nH]c3ccccc23)NC(=O)[C@H](Cc2ccc(O)cc2)NC(=O)[C@H](C)N(C)C(=O)[C@@H](Cc2ccccc2)NC1=O , please. 5.0(3.12-8.17)

Tell me the measured Growth Hormone Release Inhibition In Vitro of C[C@H]1C(=O)N[C@@H](Cc2c[nH]cn2)C(=O)N[C@H](Cc2c[nH]c3ccccc23)C(=O)N[C@@H](CCCCN)C(=O)N[C@@H](CO)C(=O)N[C@@H](Cc2ccc(O)cc2)C(=O)N1C (cyclo(H[dW]KSY[NMeA])) , please. 0.38(0.16-0.75)

Tell me the measured Growth Hormone Release Inhibition In Vitro of C[C@@H](O)[C@@H]1NC(=O)[C@H](CCCCN)NC(=O)[C@@H](Cc2c[nH]c3ccccc23)NC(=O)[C@H](Cc2ccccc2)NC(=O)CN(C)C(=O)[C@H](Cc2ccccc2)NC1=O [Cyclo--(Sar--Phe--D-Trp-- Lys--Thr--Phe)] (cyclo(F[Sar]F[dW]KT)) , please. 1.47(0.93-2.3)

###

system: growth hormone release from rat pituitary cells; assay: In vitro test for the inhibition of growth hormone release in cultured rat pituitary cells; assay type: cell-based; details: multiples or fractions of the effect of somatostatin (=1), fiducial limits in parentheses, 4 hours incubation
Square brackets hold non-standard residues; d marks the D form. Peptide text beside a SMILES is read from it. NMeI = CC[C@H](C)[C@H](NC)C(=O)O; NMeL = CN[C@@H](CC(C)C)C(=O)O; NMeA = CN[C@@H](C)C(=O)O
endpoint: Growth Hormone Release Inhibition In Vitro

>>> value("CC(C)[C@@H]1NC(=O)[C@H](CCCCN)NC(=O)[C@@H](Cc2c[nH]c3ccccc23)NC(=O)[C@H](Cc2ccc(O)cc2)NC(=O)[C@H](C)N(C)C(=O)[C@H](Cc2ccccc2)NC1=O")
"52(35-75)"
>>> value("CC(C)C[C@H]1C(=O)N[C@@H](Cc2ccccc2)C(=O)N[C@H](Cc2c[nH]c3ccccc23)C(=O)N[C@@H](CCCCN)C(=O)N[C@@H]([C@@H](C)O)C(=O)N[C@@H](Cc2ccccc2)C(=O)N1C (cyclo(F[NMeL]F[dW]KT))")
"0.49(0.19-0.98)"
>>> value("CC[C@H](C)[C@H]1C(=O)N[C@@H](Cc2ccccc2)C(=O)N[C@H](Cc2c[nH]c3ccccc23)C(=O)N[C@@H](CCCCN)C(=O)N[C@@H]([C@@H](C)O)C(=O)N[C@@H](Cc2ccccc2)C(=O)N1C (cyclo(F[NMeI]F[dW]KT))")
"1.86(1.35-2.57)"
>>> value("C[C@@H](O)[C@@H]1NC(=O)[C@H](CCCCN)NC(=O)[C@@H](Cc2c[nH]c3ccccc23)NC(=O)[C@H](Cc2ccccc2)NC(=O)[C@H](C)N(C)C(=O)[C@H](Cc2ccccc2)NC1=O [Cyclo(D-Trp-Lys-Thr-Phe-N-Me-Ala-Phe)] (cyclo(F[NMeA]F[dW]KT))")
"4.38(2.15-11.90)"

Now for another entry.
Tell me the measured Growth Hormone Release Inhibition In Vitro of CC(C)[C@@H]1NC(=O)[C@H](CCCCN)NC(=O)[C@@H](Cc2c[nH]c3ccccc23)NC(=O)[C@H](Cc2ccc(O)cc2)NC(=O)[C@H](C)N(C)C(=O)[C@H](Cc2c[nH]c3ccccc23)NC1=O (cyclo(KVW[NMeA]Y[dW])) , please. 26.9(17.2-40.3)
